# System: Plasmodium falciparum
# assay: Antimalarial activity against Plasmodium falciparum NF54
# Assay type: functional, organism-based
measurement name: pEC50
Remember, pEC50 is on a log scale: it is -log10 of the molar concentration.

Previously resolved entries follow.
{"smiles data": "C[C@H]1[C@@H](CCC(=O)Nc2cccc(S(C)(=O)=O)c2)O[C@@H]2O[C@@]3(C)CC[C@H]4[C@H](C)CC[C@@H]1[C@@]24OO3", "measurement name": "pEC50", "value": 7.68}
{"smiles data": "CSc1cc(NC(=O)CC[C@H]2O[C@@H]3O[C@@]4(C)CC[C@H]5[C@H](C)CC[C@@H]([C@H]2C)[C@@]35OO4)cc(SC)c1", "measurement name": "pEC50", "value": 8.19}
{"smiles data": "CSc1cccc(NC(=O)CC[C@H]2O[C@@H]3O[C@@]4(C)CC[C@H]5[C@H](C)CC[C@@H]([C@H]2C)[C@@]35OO4)c1", "measurement name": "pEC50", "value": 8.04}
{"smiles data": "C[C@H]1[C@@H](CCC(=O)Nc2cccc([S@@+](C)[O-])c2)O[C@@H]2O[C@@]3(C)CC[C@H]4[C@H](C)CC[C@@H]1[C@@]24OO3", "measurement name": "pEC50", "value": 7.54}
{"smiles data": "C[C@H]1[C@@H](CCC(=O)Nc2cccc([S@+](C)[O-])c2)O[C@@H]2O[C@@]3(C)CC[C@H]4[C@H](C)CC[C@@H]1[C@@]24OO3", "measurement name": "pEC50", "value": 7.64}

Data request, read-out pEC50, for `C[C@@H]1CC[C@H]2[C@@H](C)C(=O)O[C@@H]3O[C@@]4(C)CC[C@@H]1[C@]32OO4`
8.00

// provenance: ChEMBL document CHEMBL1944586
